Hey, just so you know, these numbers are from a melting point compilation (Tetko et al.; mined from patent text by program, amines drawn as free bases though some values may be those of a salt).

Below is a list of entries, each paired with its recorded melting point value.
MEASUREMENT_LABEL: melting point

> print(dat)
                                   molecule  readout.value
1  CCN(CC)C(=O)c1nn(-c2ccc(OC(F)(F)F)cc2)c2cccc(F)c2c1=O         118 °C
2  COc1cc(C(=O)O)c(-n2c3ccccc3c3ccccc32)cc1C(=O)O         298 °C
3                       CCCCCCCCCCSCCCN=C=O    89 to 92 °C
4           CC(C)(Sc1nc(N)cc(Cl)n1)c1ccccn1  183 to 184 °C
5   CN(C(=O)OC(C)(C)C)c1cc(OCc2ccccc2)ccc1N    86 to 89 °C
6     CNCC(O)c1ccc(C)o1 (centres undefined)    40 to 45 °C
7  Cc1cccc(-c2[nH]c(C(C)C)nc2-c2ccc(F)c(-c3ccc(C(=O)NC4CCOCC4)cc3)c2)n1  130 to 132 °C
8        COc1ccc2c(n1)c(CCNC(C)=O)c1n2CCCO1    92 to 93 °C
9         CCCc1cc(O)cc2cc(-c3ccc(O)cc3)oc12  178 to 180 °C
